- Tested on: Trypanosoma brucei rhodesiense
- assay.details: Antiprotozoal activity against Trypanosoma brucei rhodesiense STIB900
- Format: functional, organism-based
Can you tell me pIC50 for the items I'm about to list?
Please express pIC50 as -log10 of the molar concentration.

For record `CN1/C(=C/C=C/c2oc3ccccc3[n+]2C)Oc2ccccc21` the listed pIC50 is 6.15

For record `CCN1/C(=C/C=C/c2oc3ccccc3[n+]2C)Sc2ccc(F)cc21` the listed pIC50 is 6.08

For record `Cn1/c(=N/C=C/c2sc3ccc(Cl)cc3[n+]2C)sc2ccccc21` the listed pIC50 is 8.00

For record `CN1/C(=C/C=C/C=C/c2sc3ccc(Cl)cc3[n+]2C)Sc2ccc(Cl)cc21` the listed pIC50 is 8.10

For record `Cc1ccc2oc(/C=C/C=C3\Sc4ccc(Cl)cc4N3C)[n+](C)c2c1` the listed pIC50 is 7.21

For record `Cc1ccc2c(c1)N(C)/C(=C/C=C/c1oc3ccccc3[n+]1C)O2` the listed pIC50 is 7.32

For record `CN1/C(=C/C=C/c2sc3ccc(F)cc3[n+]2C)Sc2ccc(F)cc21` the listed pIC50 is 6.58

For record `Cc1ccc2oc(/C=C/C=C3\Sc4ccccc4N3C)[n+](C)c2c1` the listed pIC50 is 6.30

For record `CN1/C(=C/C=C/c2oc3ccc(Cl)cc3[n+]2C)Oc2ccc(Cl)cc21` the listed pIC50 is 5.28

For record `CN1/C(=C/C=C/c2oc3ccccc3[n+]2C)Oc2ccc(Cl)cc21` the listed pIC50 is 5.23

For record `Cn1/c(=N\N/C=C/c2sc3ccccc3[n+]2C)sc2ccccc21` the listed pIC50 is 5.42

For record `CN1/C(=C/C=C/C=C/c2sc3ccccc3[n+]2C)Sc2ccccc21` the listed pIC50 is 7.89

For record `Cn1/c(=N\N/C=C/c2sc3ccc(Cl)cc3[n+]2C)sc2ccccc21` the listed pIC50 is 5.53

For record `Cc1ccc2c(c1)N(C)/C(=C/C=C/c1oc3ccccc3[n+]1C)S2` the listed pIC50 is 6.95

For record `Cn1/c(=N/C=C/c2sc3ccc(F)cc3[n+]2C)sc2ccccc21` the listed pIC50 is 6.43

For record `CN1/C(=C/C=C/c2oc3ccccc3[n+]2C)Sc2ccccc21` the listed pIC50 is 6.73

For record `Cc1ccc2oc(/C=C/C=C3\Sc4ccc(F)cc4N3C)[n+](C)c2c1` the listed pIC50 is 6.74

For record `Cn1/c(=N/C=C/c2sc3ccccc3[n+]2C)sc2ccccc21` the listed pIC50 is 7.68

For record `CCN1/C(=C/C=C/c2sc3ccccc3[n+]2C)Sc2ccc(F)cc21` the listed pIC50 is 6.34

For record `Cc1ccc2c(c1)N(C)/C(=C/C=C/c1oc3ccc(C)cc3[n+]1C)O2` the listed pIC50 is 7.27

For record `Cc1ccc2c(c1)N(C)/C(=C/C=C/c1oc3ccc(C)cc3[n+]1C)S2` the listed pIC50 is 7.41

For record `CN1/C(=C/C=C/c2oc3ccccc3[n+]2C)Sc2ccc(F)cc21` the listed pIC50 is 6.06

Data origin: ChEMBL document CHEMBL3217673
